Reported IC50 is given for each of the following compounds.
- Tested on: VCaP cells
- measurement-notes: Anti-proliferative toxicity against prostate cancer cell line Vcap (CCK8)
- Assay type: cell-based, human
- settings: Homo sapiens, 72 h, 3 days, CCK8

Some compounds with recorded IC50:
INSERT INTO measurements (compound, experimental_target, measurement) VALUES
  ('C[C@]12C=CC(=O)N[C@@H]1CC[C@@H]1[C@@H]2CC[C@]2(C)[C@@H](C(=O)Nc3cc(Cl)cc(OCCCNc4cccc5c4C(=O)N(C4CCC(=O)NC4=O)C5=O)c3)CC[C@@H]12 (stereo partly drawn)', 'VCaP cells', '10 to 1000 nM'),
  ('C[C@]12C=CC(=O)N[C@@H]1CC[C@@H]1[C@@H]2CC[C@]2(C)[C@@H](C(=O)Nc3cccc(N[C@@H]4CCC[C@@H](Nc5cccc6c5CN([C@@H]5CCC(=O)NC5=O)C6=O)C4)c3)CC[C@@H]12', 'VCaP cells', '> 1000 nM'),
  ('C[C@]12C=CC(=O)N[C@@H]1CC[C@@H]1[C@@H]2CC[C@]2(C)[C@@H](C(=O)Nc3ccc(Cl)c(OCCCNc4cccc5c4C(=O)N(C4CCC(=O)NC4=O)C5=O)c3)CC[C@@H]12 (stereo partly drawn)', 'VCaP cells', '> 1000 nM'),
  ('C[C@]12C=CC(=O)N[C@@H]1CC[C@@H]1[C@@H]2CC[C@]2(C)[C@@H](C(=O)Nc3ccc(OCCCCCCCCNc4cccc5c4C(=O)N(C4CCC(=O)NC4=O)C5=O)cc3)CC[C@@H]12 (stereo partly drawn)', 'VCaP cells', '> 1000 nM');

Query block: Complete the entry with IC50 for C[C@]12C=CC(=O)N[C@@H]1CC[C@@H]1[C@@H]2CC[C@]2(C)[C@@H](C(=O)Nc3cccc(OCCCNc4cccc5c4CN(C4CCC(=O)NC4=O)C5=O)c3)CC[C@@H]12 (stereo partly drawn)
Result block: 0.1 to 10 nM

Query block: Tell me IC50 reported for CC(C)(C)C(=O)OCN1C(=O)CCC(N2C(=O)c3cccc(NCCCOc4cccc(NC(=O)[C@H]5CC[C@H]6[C@@H]7CC[C@H]8NC(=O)C=C[C@]8(C)[C@H]7CC[C@]56C)c4)c3C2=O)C1=O (stereo partly drawn)
Result block: 0.1 to 10 nM

Query block: Return the recorded IC50 value; entry: C[C@]12C=CC(=O)N[C@@H]1CC[C@@H]1[C@@H]2CC[C@]2(C)[C@@H](C(=O)Nc3ccc(OCCCCCNc4cccc5c4C(=O)N(C4CCC(=O)NC4=O)C5=O)cc3)CC[C@@H]12 (stereo partly drawn)
Result block: > 1000 nM

Query block: Using the record for C[C@]12C=CC(=O)N[C@@H]1CC[C@@H]1[C@@H]2CC[C@]2(C)[C@@H](C(=O)N3CCC(CN4CCN(c5ccc6c(c5)C(=O)N(C5CCC(=O)NC5=O)C6=O)CC4)CC3)CC[C@@H]12 (stereo partly drawn) , state its measured IC50.
Result block: > 1000 nM

Query block: Note IC50 for the compound shown: C[C@]12C=CC(=O)N[C@@H]1CC[C@@H]1[C@@H]2CC[C@]2(C)[C@@H](C(=O)Nc3cccc(NC4CCC(Nc5cccc6c5C(=O)N(C5CCC(=O)NC5=O)C6=O)CC4)c3)CC[C@@H]12 (stereo partly drawn)
Result block: > 1000 nM

Query block: Look up and report measured IC50 for this entry: C[C@]12C=CC(=O)N[C@@H]1CC[C@@H]1[C@@H]2CC[C@]2(C)[C@@H](C(=O)NCCCCCCCNc3ccc4c(c3)C(=O)N(C3CCC(=O)NC3=O)C4=O)CC[C@@H]12 (stereo partly drawn)
Result block: > 1000 nM

Query block: Name the recorded IC50 of the item C[C@]12C=CC(=O)N[C@@H]1CC[C@@H]1[C@@H]2CC[C@]2(C)[C@@H](C(=O)Nc3ccc(OCCNc4cccc5c4C(=O)N(C4CCC(=O)NC4=O)C5=O)cc3)CC[C@@H]12 (stereo partly drawn) in your answer.
Result block: 10 to 1000 nM

Query block: Report IC50, nothing else, for this compound: C[C@]12C=CC(=O)N[C@@H]1CC[C@@H]1[C@@H]2CC[C@]2(C)[C@@H](C(=O)Nc3cccc(OCCCCCCCCNc4cccc5c4C(=O)N(C4CCC(=O)NC4=O)C5=O)c3)CC[C@@H]12 (stereo partly drawn)
Result block: > 1000 nM
